Values were extracted from ChEMBL document CHEMBL3085741.

Molecular target: Sphingosine kinase 2 (Homo sapiens, UniProt Q9NRA0)
Sequence (Q9NRA0 whole entry): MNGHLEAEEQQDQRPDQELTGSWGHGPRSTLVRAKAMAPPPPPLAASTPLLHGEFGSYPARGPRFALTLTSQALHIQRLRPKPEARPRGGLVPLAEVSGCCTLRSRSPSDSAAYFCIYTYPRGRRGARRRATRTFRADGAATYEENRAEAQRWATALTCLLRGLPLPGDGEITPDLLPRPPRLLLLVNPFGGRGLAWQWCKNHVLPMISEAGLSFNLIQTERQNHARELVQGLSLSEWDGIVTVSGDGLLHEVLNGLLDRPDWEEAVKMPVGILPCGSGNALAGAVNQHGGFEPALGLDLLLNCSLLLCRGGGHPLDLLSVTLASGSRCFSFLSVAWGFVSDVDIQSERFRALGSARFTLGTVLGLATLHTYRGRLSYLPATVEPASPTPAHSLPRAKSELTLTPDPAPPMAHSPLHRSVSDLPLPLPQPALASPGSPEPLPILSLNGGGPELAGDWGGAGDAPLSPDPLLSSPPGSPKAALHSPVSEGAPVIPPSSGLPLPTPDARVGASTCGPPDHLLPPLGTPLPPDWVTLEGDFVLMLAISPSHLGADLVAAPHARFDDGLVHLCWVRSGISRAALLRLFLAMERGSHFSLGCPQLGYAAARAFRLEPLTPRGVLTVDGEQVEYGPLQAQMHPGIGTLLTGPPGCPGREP
reported metric: IC50 (µM)
State the answer as a number, implicitly in µM.

Short answer please: IC50, Sphingosine kinase 2 (Homo sapiens, UniProt Q9NRA0), entry `CCCCCCCCc1ccc(CCN2CCC[C@@H]2CO)cc1`
5.2

* * *

Each record here notes measured IC50.
Target: Sphingosine kinase 1 (Homo sapiens, UniProt Q9NYA1)
Sequence (Q9NYA1 whole entry): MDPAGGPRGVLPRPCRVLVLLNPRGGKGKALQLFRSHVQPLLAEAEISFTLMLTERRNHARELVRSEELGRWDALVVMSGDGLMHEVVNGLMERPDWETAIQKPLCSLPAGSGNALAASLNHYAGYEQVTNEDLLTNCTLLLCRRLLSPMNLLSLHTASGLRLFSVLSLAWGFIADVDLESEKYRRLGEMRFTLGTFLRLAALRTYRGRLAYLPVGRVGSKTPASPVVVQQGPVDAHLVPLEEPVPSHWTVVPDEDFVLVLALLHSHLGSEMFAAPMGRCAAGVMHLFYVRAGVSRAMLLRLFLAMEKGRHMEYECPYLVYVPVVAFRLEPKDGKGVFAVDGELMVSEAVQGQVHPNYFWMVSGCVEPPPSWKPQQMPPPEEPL
Assay: Inhibition of recombinant sphingosine kinase 1 (unknown origin) expressed in HEK293 cells using sphingosine as substrate after 30 mins in presence of [gamma32P]-ATP
State the answer as a number, implicitly in µM.

CCCCCCCCCCCCc1ccc(CCN2CCC[C@@H]2CO)cc1	5.3

Short answer please: IC50, Sphingosine kinase 1 (Homo sapiens, UniProt Q9NYA1), entry `CCCCCCCCc1ccc(CCN2CCC(N)CC2)cc1`
16.9

Query `CCCCCCCCc1ccc(CCN2CCC[C@@H]2CO)cc1` next
2.2

* * *

Target: Sphingosine kinase 2 (Homo sapiens)
Sequence (whole entry): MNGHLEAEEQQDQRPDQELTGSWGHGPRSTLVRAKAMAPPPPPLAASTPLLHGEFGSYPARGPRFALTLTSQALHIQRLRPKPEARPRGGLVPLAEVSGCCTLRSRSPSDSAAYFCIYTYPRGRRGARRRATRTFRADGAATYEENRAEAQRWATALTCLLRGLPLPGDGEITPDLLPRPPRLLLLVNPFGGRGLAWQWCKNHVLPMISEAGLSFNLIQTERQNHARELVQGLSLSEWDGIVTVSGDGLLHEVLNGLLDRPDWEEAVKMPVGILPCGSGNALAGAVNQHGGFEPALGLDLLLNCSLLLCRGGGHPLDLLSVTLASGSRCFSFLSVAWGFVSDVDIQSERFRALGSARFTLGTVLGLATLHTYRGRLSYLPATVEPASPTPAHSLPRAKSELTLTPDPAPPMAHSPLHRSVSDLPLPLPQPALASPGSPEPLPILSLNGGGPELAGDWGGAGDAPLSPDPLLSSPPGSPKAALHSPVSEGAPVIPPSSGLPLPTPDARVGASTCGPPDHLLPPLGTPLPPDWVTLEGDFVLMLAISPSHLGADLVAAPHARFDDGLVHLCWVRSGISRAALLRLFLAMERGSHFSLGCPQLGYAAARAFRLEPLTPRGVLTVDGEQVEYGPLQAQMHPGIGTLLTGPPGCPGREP
Assay: Inhibition of sphingosine kinase 2 (unknown origin) using sphingosine as substrate at 50 uM after 30 mins relative to control in presence of [gamma32P]-ATP
Details: 50 uM
The source made the active and inactive calls. No cut-off for these calls is given here.
Respond with a class label; see active, inactive

Kindly provide the recorded test outcome for the following molecule: `CCCCCCCCc1ccc(CCN2CCC(=O)CC2)cc1`
active

Query `CCCCc1cn(-c2ccc(CC[N+]3(C)CCCCC3)cc2)nn1` next
inactive
